Target: T1, hCLEC2D (human, UniProt Q9UHP7 1-191)
T1 construct: Overexpressed on HEK293 or K562 cells; the same id is used for endogenous CLEC2D on NALM6 and Raji cells; also called LLT1
T1 sequence: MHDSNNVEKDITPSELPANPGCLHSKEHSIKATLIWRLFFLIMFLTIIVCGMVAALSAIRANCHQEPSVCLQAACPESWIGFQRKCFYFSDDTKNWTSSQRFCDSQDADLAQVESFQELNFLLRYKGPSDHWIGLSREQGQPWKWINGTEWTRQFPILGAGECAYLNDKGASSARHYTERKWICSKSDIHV
Test: flow cytometry, HEK293 transfectants, 100 nM antibody;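 further: antibody applied at a saturating level and incubated with cells for 30 min at room temperature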
Entries and their % of CD161 binding
Kindly answer with a numeric value in %, unit omitted.

# count of solved cases: 8
Ab10 (antibody, human IgG1, V domains shown, IgG purified from yeast culture) VH: EVQLLESGGGLVQPGGSLRLSCAASGFTFSQYAMSWVRQAPGKGLEWVSAISAVGGSTYYADSVKGRFTISRDNSKNTLYLQMNSLRAEDTAVYYCAKPLDSSQWADFDLWGRGTLVTVSS VL: DIQLTQSPSSVSASVGDRVTITCRASQDISSWLAWYQQKPGKAPKLLIYAASALQSGVPSRFSGSGSGTDFTLTISSLQPEDFATYYCQQADVLPITFGGGTKVEIK : 0.935
Ab4 (antibody, human IgG1, V domains shown, IgG purified from yeast culture) VH: EVQLLESGGGLVQPGGSLRLSCAASGFTFERYAMSWVRQAPGKGLEWVSAISAVGGTTKYADSVKGRFTISRDNSKNTLYLQMNSLRAEDTAVYYCAKPLDSSLWADFDAWGRGTLVTVSS VL: DIQLTQSPSSVSASVGDRVTITCRASQGISSWLAWYQQKPGKAPKLLIYAASGLQSGVPSRFSGSGSGTDFTLTISSLQPEDFATYYCQQASYLPITFGGGTKVEIK : 1.11
Ab15 (antibody, human IgG1, V domains shown, IgG purified from yeast culture) VH: QVQLVESGGGLVKPGGSLRLSCAASGFTFPQYYMSWIRQAPGKGLEWVSYISPSGATIYYADSVKGRFTISRDNAKNSLYLQMNSLRAEDTAVYYCARSLMSTGTHLYFDLWGRGTLVTVSS VL: DIQLTQSPSSVSASVGDRVTITCRASQGISSWLAWYQQKPGKAPKLLIYAASSLQSGVPSRFSGSGSGTDFTLTISSLQPEDFATYYCQQVTSTPPYTFGGGTKVEIK : 0.935
Ab3 (antibody, human IgG1, V domains shown, IgG purified from yeast culture) VH: EVQLLESGGGLVQPGGSLRLSCAASGFTFERYAMSWVRQAPGKGLEWVSAISAAGGTTYYADSVKGRFTISRDNSKNTLYLQMNSLRAEDTAVYYCAKPLDSSQWADFDLWGRGTLVTVSS VL: DIQLTQSPSSVSASVGDRVTITCRASQDISSWLAWYQQKPGKAPKFLIYAASALQSGVPSRFSGSGSGTDFTLTISSLQPEDFATYYCQQALVLPITFGGGTKVEIK : 0.832
Ab2 (antibody, human IgG1, V domains shown, IgG purified from yeast culture) VH: EVQLLESGGGLVQPGGSLRLSCAASGFAFSTYAMSWVRQAPGKGLEWVSAISGVGGTTYYADSVKGRFTISRDNSKNTLYLQMNSLRAEDTAVYYCAKPLDSSLWADFDLWGRGTLVTVSS VL: DIQLTQSPSSVSASVGDRVTITCRASQGISSWLAWYQQKPGKAPKLLIYYASSLQDGVPSRFSGSGSGTDFTLTISSLQPEDFATYYCQQASVLPITFGGGTKVEIK : 0.863
Ab18 (antibody, human IgG1, V domains shown, IgG purified from yeast culture) VH: QVQLVESGGGLVKPGGSLRLSCAASGFTFSQYYMSWIRQAPGKGLEWVSYISPSGATIAYADSVKGRFTISRDNAKNSLYLQMNSLRAEDTAVYYCARSLMATGTHLYFDLWGRGTLVTVSS VL: DIQLTQSPSSVSASVGDRVTITCRASQGISSWLAWYQQKPGKAPKLLIYAAESLQSGVPSRFSGSGSGTDFTLTISSLQPEDFATYYCQQVTSQPPYTFGGGTKVEIK : 0.865
Ab14 (antibody, human IgG1, V domains shown, IgG purified from yeast culture) VH: QVQLVESGGGLVKPGGSLRLSCAASGFTFGQYYMSWIRQAPGKGLEWVSYISPSGATIAYADSVKGRFTISRDNAKNSLYLQMNSLRAEDTAVYYCARSLMSTGTHLYFDLWGRGTLVTVSS VL: DIQLTQSPSSVSASVGDRVTITCRASQGISDWLAWYQQKPGKAPKLLIYAASSLQSGVPSRFSGSGSGTDFTLTISSLQPEDFATYYCQQVTSFPPYTFGGGTKVEIK : 1.02
Ab19 (antibody, human IgG1, V domains shown, IgG purified from yeast culture) VH: QVQLVESGGGLVKPGGSLRLSCAASGFTFSQYYMSWIRQAPGKGLEWVSYISPSGATIYYADSVKGRFTISRDNAKNSLYLQMNSLRAEDTAVYYCARSLMATGTHLYFDLWGRGTLVTVSS VL: DIQLTQSPSSVSASVGDRVTITCRASQGISSWLAWYQQKPGKAPKLLIYAASALQSGVPSRFSGSGSGTDFTLTISSLQPEDFATYYCQQVTSAPPYTFGGGTKVEIK : 0.97

Consider Ab5 (antibody, human IgG1, V domains shown, IgG purified from yeast culture) VH: EVQLLESGGGLVQPGGSLRLSCAASGFTFGQYAMSWVRQAPGKGLEWVSAISAVGGTTAYADSVKGRFTISRDNSKNTLYLQMNSLRAEDTAVYYCAKPLDSSLWADFQLWGRGTLVTVSS VL: DIQLTQSPSSVSASVGDRVTITCRASQDISSWLAWYQQKPGKAPKLLIYFASSLQSGVPSRFSGSGSGTDFTLTISSLQPEDFATYYCQQASKLPITFGGGTKVEIK . Its measured % of CD161 binding is 0.872

Consider Ab20 (antibody, human IgG1, V domains shown, IgG purified from yeast culture) VH: QVQLVESGGGLVQPGGSLRLSCAASGFTFSQYYMSWIRQAPGKGLEWVSYISPSGATIAYADSVKGRFTISRDNAKNSLYLQMNSLRAEDTAVYYCARSLMSTGTHLYFDLWGRGTLVTVSS VL: DIQLTQSPSSVSASVGDRVTITCRASQGISSWLAWYQQKPGKAPKLLIYAASVLQSGVPSRFSGSGSGTDFTLTISSLQPEDFATYYCQQVTSFLPYTFGGGTKVEIK . Its measured % of CD161 binding is 0.968

Consider Ab11 (antibody, human IgG1, V domains shown, IgG purified from yeast culture) VH: EVQLLESGGGLVQPGGSLRLSCAASGFTFSQYAMSWVRQAPGKGLEWVSAISAAGGTTYYADSVKGRFTISRDNSKNTLYLQMNSLRAEDTAVYYCAKPLDSSQWADFDLWGRGTLVTVSS VL: DIQLTQSPSSVSASVGDRVTITCRASQGIYSWLAWYQQKPGKAPKLLIYAASSLQSGVPSRFSGSGSGTDFTLTISSLQPEDFATYYCQQASDLPITFGGGTKVEIK . Its measured % of CD161 binding is 0.785
